study.target: T1, human TSLP recombinant protein (human, UniProt Q969D9 29-159, biotinylated in the blocking and cell-binding assays (sites not given))
T1 construct: also called biotinylated human TSLP protein
procedure.details: flow cytometry competition, biotin-human TSLP to Ba/F3-hTSLPR-IL7Rα cells
recorded.endpoint: pIC50
// field semantics: pIC50 = negative decimal log of concentration (mol/L)

Bench note: what pIC50 did Ab21 (antibody, V domains shown, Humanized; also called h71G4VHv3/h71G4VKv1) VH: QVQLVQSGAEVKKPGSSVKVSCKASGYTFTDYWMHWVRQAPGQGLEWMGTIDNSDSDTTYNQKFQGRVTMTRDTSTSTVYMELSSLRSEDTAVYYCARSVDGYLDYWGQGTLVTVSS VL: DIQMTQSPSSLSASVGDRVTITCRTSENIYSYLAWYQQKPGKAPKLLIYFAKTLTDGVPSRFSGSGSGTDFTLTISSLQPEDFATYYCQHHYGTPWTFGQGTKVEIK show? 9.44

Subsequent entry: Ab25 (antibody, V domains shown, Humanized; also called h39G5VHv6/h71G4VKv1) VH: QVQLVQSGAEVKKPGSSVKVSCKASGYTFTDYWMHWVRQAPGQGLEWMGTIDNSDSDTSLNQKFQGRVTLTVDTSTSTAYMELSSLRSEDTAVYYCARSLDGYYDYWGQGTLVTVSS VL: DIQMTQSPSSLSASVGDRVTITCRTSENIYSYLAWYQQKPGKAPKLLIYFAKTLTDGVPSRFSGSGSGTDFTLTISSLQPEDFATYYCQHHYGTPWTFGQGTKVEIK 9.46

Subsequent entry: Murine anti-39G5 (mAb39G5) (antibody, V domains shown, also called murine antibody 39G5) VH: QVQLLQSGPQLVRPGASVKISCKASGYSFISYWIHWVKQRPGQGLEWIGIIDPSDSDTSLNQKFKDKATLTVDKSSTTAYIQLSSPTSEDSAVYYCARSLDGYYDYWGQGTTLTVSS VL: DIQMTQSPASLSASVGETVTITCRASENIYSYLAWYQQKQGKSPQLLVYNARTLPEGVPSRFSGSGSGTQFSLKINSLQPEDFGIYYCQHHYTTPWTFGGGTKLEIK 9.44

Subsequent entry: Ab24 (antibody, V domains shown, Humanized; also called h39G5VHv5/h71G4VKv1; h39G5VHv5/h71G4VKv1 hIgG1) VH: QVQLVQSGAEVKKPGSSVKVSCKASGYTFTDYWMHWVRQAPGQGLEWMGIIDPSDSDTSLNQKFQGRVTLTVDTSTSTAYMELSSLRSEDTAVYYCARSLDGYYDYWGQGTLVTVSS VL: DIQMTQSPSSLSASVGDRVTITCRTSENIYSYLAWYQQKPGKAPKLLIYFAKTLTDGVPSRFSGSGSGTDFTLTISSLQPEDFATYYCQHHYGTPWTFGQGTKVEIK 9.44

Subsequent entry: Ab19 (antibody, V domains shown, Humanized; also called h71G4VHv1/h71G4VKv1) VH: QVQLVQSGAEVKKPGSSVKVSCKASGYTFTDYWMHWVRQAPGQGLEWMGTIDNSDSDTTYNPSFQGHVTISADKSISTAYLQWSSLKASDTAMYYCARSVDGYLDYWGQGTLVTVSS VL: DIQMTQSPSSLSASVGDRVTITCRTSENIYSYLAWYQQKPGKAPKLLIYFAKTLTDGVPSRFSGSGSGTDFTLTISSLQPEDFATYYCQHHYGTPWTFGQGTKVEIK 9.35
